molecular target: Human Full Length PARG (Homo sapiens (Human), UniProt Q86W56); experiment: PARG enzyme assay (TR-FRET); assay type: biochemical; conditions: read-out: PARG Biochem IC50 Geomean
Sequence (Q86W56 whole entry): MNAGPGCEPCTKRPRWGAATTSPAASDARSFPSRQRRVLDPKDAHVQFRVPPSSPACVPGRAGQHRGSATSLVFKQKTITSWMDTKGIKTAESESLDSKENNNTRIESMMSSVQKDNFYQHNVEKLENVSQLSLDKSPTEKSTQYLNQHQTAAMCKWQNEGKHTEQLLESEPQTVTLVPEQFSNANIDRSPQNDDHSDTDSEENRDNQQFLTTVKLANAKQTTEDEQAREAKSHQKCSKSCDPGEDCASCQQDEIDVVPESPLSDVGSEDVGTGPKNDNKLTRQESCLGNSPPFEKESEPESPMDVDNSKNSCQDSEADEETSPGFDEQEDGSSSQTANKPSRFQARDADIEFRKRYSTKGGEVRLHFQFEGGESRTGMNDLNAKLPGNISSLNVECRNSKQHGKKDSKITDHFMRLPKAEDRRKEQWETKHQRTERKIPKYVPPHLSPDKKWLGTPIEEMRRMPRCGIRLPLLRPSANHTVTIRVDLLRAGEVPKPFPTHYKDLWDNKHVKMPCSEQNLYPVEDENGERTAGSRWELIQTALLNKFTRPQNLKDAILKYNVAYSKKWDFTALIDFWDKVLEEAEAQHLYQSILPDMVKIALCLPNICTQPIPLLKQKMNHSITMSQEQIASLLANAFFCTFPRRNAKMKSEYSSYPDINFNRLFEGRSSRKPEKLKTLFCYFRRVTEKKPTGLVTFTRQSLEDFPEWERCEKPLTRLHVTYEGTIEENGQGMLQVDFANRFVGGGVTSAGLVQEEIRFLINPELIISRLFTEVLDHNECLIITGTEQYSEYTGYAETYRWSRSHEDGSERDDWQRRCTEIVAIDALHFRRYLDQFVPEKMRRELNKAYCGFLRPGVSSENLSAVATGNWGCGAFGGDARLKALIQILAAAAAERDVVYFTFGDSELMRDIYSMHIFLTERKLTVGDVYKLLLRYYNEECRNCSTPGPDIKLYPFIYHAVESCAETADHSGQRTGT
The following molecules are listed with their measured log10(IC50) values.
Readout kind: log10(IC50) (log10 of the value in nM)

- Cn1cc(Cn2c(=O)c3cc(S(=O)(=O)NC4(C)CC4)ccc3n(CC3CCCO3)c2=O)cn1 (centres unmarked) [Example 258]: 2.23
- Cc1cc(Cn2c(=O)c3cc(S(=O)(=O)NC4(C)CC4)ccc3n(C)c2=O)n[nH]1 [Example 195]: 3.51
- Cc1nc(-c2ccccc2)c(Cn2c(=O)n(C)c(=O)c3cc(S(=O)(=O)NC4(C)CC4)ccc32)s1 [Example 134]: 2.88
- Cc1cc(Cn2c(=O)c3cc(S(=O)(=O)NC4(C)CC4)cnc3n(C)c2=O)on1 [Example 205]: 3.41
- Cn1c(-c2ccccc2)nc2ccc(S(=O)(=O)NC3(C)CC3)cc2c1=O [Example 97]: 3.34
- Cn1c(=O)c2cc(S(=O)(=O)NC3(C)CC3)ccc2n(Cc2nccs2)c1=O [Example 146]: 2.83
- Cn1cc(Cn2c(=O)c3cc(S(=O)(=O)NC4(C)CC4)ccc3n(CC3CCCC3)c2=O)cn1 [Example 279]: 2.23
- Cn1c(=O)c2cc(S(=O)(=O)NC3(C#N)CC3)ccc2n(C)c1=O [Example 3]: 3.70

---

molecular target: Human Full Length PARG (Homo sapiens (Human), UniProt Q86W56); assay: PARG enzyme assay (TR-FRET); format: biochemical; details: read-out: PARG Biochem IC50
The following compounds are listed with their measured IC50 values.
Readout kind: IC50 (nM)

- Cc1ncc(Cn2c(=O)c3cc(S(=O)(=O)NC4(C)CC4)ccc3n(CC3CC(C)(C)C3)c2=O)s1: 109
- Cn1cc(Cn2c(=O)c3cc(S(=O)(=O)NC4(CF)CC4)ccc3n(CC3CCC3)c2=O)cn1: 39
- CCC(=O)Cn1c(=O)n(Cc2cnn(C)c2)c(=O)c2cc(S(=O)(=O)NC3(CF)CC3)ccc21: 144
- CCN(CC)CCn1c(=O)n(Cc2cnn(C)c2)c(=O)c2cc(S(=O)(=O)NC3(CF)CC3)ccc21: 113
- Cn1cc(CN2C(=O)c3cccc4cc(S(=O)(=O)NC5(C)CC5)cc(c34)C2=O)cn1: 728
- Cn1cc(Cn2c(=O)c3cc(S(=O)(=O)NC4(CF)CC4)ccc3n(CC3COC3)c2=O)cn1: 102
- CN(C)CC#Cc1cc(S(=O)(=O)NC2(C)CC2)cc2c(=O)n(Cc3cnn(C)c3)c(=O)[nH]c12: 1770
- Cn1cc(Cn2c(=O)c3cc(S(=O)(=O)NC4(CF)CC4)ccc3n(Cc3nccn3C)c2=O)cn1: 156
- Cn1c(=O)n(Cc2ccns2)c(=O)c2cc(S(=O)(=O)NC3(C)CC3)ccc21: 2290
- Cn1cc(Cn2c(=O)c3cc(S(=O)(=O)NC4(C)CC4)ccc3n(CCF)c2=O)cn1: 263
- Cn1cnnc1Cn1c(=O)c2cc(S(=O)(=O)NC3(C)CC3)ccc2n(C)c1=O: 2460
- CC1(NS(=O)(=O)c2ccc3[nH]c(=O)n(CCC#N)c(=O)c3c2)CC1: 2670
- Cc1ncc(Cn2c(=O)c3cc(S(=O)(=O)NC4(CF)CC4)ccc3n(C)c2=O)s1: 287
- Cn1cc(Cn2c(=O)c3cc(S(=O)(=O)NC4(CF)CC4)ccc3n(CC(F)(F)F)c2=O)cn1: 2670
- Cn1cc(Cn2c(=O)c3cc(S(=O)(=O)NC4(CF)CC4)ccc3n(Cc3nncn3C)c2=O)cn1: 171
- Cn1cc(Cn2c(=O)c3cc(S(=O)(=O)NC4(CF)CC4)ccc3n(Cc3cnco3)c2=O)cn1: 38
